Test: Stability test of heat resistance of near-IR absorption filter
Format: physicochemical
Details: acrylic resin filter, oven at 80° C.; head prints 14-day, text 21 days
Experimental: 1.2 part of each compound obtained in each Example was dissolved in 18.8 part of MEK. 80 part of a resin solution obtained by dissolving 25 part of an acrylic resin (Dianal BR-80, manufactured by Mitsubishi Rayon Co., Ltd.) in 75 part of MEK was mixed with the obtained solution to obtain a solution for coating. […] […] After that, the filters were subjected to color measurement by a spectrophotometer to calculate L*, a*, and b* values and their stability was evaluated based on the change in b* values. […]
METRIC: b* value, 14-day after

Worked cases, answers included:
Qu. Please give the documented b* value, 14-day after of CC(C)CCN(CCC(C)C)c1ccc([N+](=C2C=CC(=[N+](c3ccc(N(CCC(C)C)CCC(C)C)cc3)c3ccc(N(CCC(C)C)CCC(C)C)cc3)C=C2)c2ccc(N(CCC(C)C)CCC(C)C)cc2)cc1.O=S(=O)([N-]S(=O)(=O)C(F)(F)F)C(F)(F)F.O=S(=O)([N-]S(=O)(=O)C(F)(F)F)C(F)(F)F
Ans. 3.8

Qu. Identify the reported b* value, 14-day after for the following entry. CCCCN(CCCC)c1ccc([N+](=C2C=CC(=[N+](c3ccc(N(CCCC)CCCC)cc3)c3ccc(N(CCCC)CCCC)cc3)C=C2)c2ccc(N(CCCC)CCCC)cc2)cc1.[F][Sb-]([F])([F])([F])([F])[F].[F][Sb-]([F])([F])([F])([F])[F] [Compound No. 153, reference compound]
Ans. 4.4

1: CCCCN(CCCC)c1ccc([N+](=C2C=CC(=[N+](c3ccc(N(CCCC)CCCC)cc3)c3ccc(N(CCCC)CCCC)cc3)C=C2)c2ccc(N(CCCC)CCCC)cc2)cc1
2: CC(C)CN(CC(C)C)c1ccc([N+](=C2C=CC(=[N+](c3ccc(N(CC(C)C)CC(C)C)cc3)c3ccc(N(CC(C)C)CC(C)C)cc3)C=C2)c2ccc(N(CC(C)C)CC(C)C)cc2)cc1
Qu. Field: lower recorded b* value, 14-day after (choose 1 or 2 ) The response must carry the label of the picked entry.
Ans. 2
